# test.description: Metabolic stability with human hepatocytes
# Assay type: in vitro ADME
# test.conditions: human hepatocyte suspension (typically cryopreserved), 1 μM test compound, six hours, scaled with well stirred model
result.type: CLhep predicted at 1 μM (mL/min/kg)

{"molecule": "CN1C(=O)N(c2cccc(C(F)(F)F)c2)C2=C(C(=O)NCC2)[C@H]1c1ccc(C#N)cc1-c1cnco1 [Example 30A]", "CLhep predicted at 1 μM [mL/min/kg]": 3}

A. CN1C(=O)N(c2cccc(C(F)(F)F)c2)C2=C(C(=O)NCC2)[C@H]1c1ccc(C#N)cc1CO [Example 32A]
B. CN1C(=O)N(c2cccc(C(F)(F)F)c2)C2=C(C(=O)NCC2)C1c1ccc(C#N)cc1S(C)(=O)=O (stereo not shown)
C. CN1C(=O)N(c2cccc(C(F)F)c2)C2=C(C(=O)NCC2)[C@H]1c1ccc(C#N)cc1
Q) Provide the items ranked by increasing CLhep predicted at 1 μM. Give the labels in the order requested.
A) B, C, A

----------
# tgt: neutrophil elastase in human plasma (Homo sapiens (Human), UniProt P08246)
# Sequence (P08246 30-247): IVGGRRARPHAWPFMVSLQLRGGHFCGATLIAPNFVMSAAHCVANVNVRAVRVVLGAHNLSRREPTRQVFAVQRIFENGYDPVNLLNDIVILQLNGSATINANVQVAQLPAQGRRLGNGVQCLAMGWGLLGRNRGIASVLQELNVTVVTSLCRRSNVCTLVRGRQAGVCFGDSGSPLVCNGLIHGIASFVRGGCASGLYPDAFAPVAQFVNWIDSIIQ
# test.description: Neutrophil elastase inhibitory activity in human plasma
# test.conditions: human plasma assay (zymosan-stimulated blood plasma), substrate 250 μM, pH 7.5
result.type: IC50 (nM)

Below are worked cases with known answers.
{"compound": "N#Cc1ccc(C2C3=C(CCNC3=O)N(c3cccc(C(F)(F)F)c3)C(=O)N2CC(N)=O)cc1 (stereo not drawn)", "IC50 (nM)": 2.9}
{"compound": "CCNC(=O)N1CCC2=C(C1=O)C(c1ccc(C#N)cc1)NC(=O)N2c1cccc(C(F)(F)F)c1 (stereo not drawn)", "IC50 (nM)": 18}
{"compound": "CNC(=O)N1C(=O)N(c2cccc(C(F)(F)F)c2)C2=C(C(=O)NCC2)C1c1ccc(C#N)cc1 (stereo not drawn)", "IC50 (nM)": 2.4}
{"compound": "N#Cc1ccc(C2NC(=O)N(c3cccc(C(F)(F)F)c3)C3=C2C(=O)NCC3)c(Br)c1 (stereo not drawn)", "IC50 (nM)": 1.9}
{"compound": "CN(C)C(=O)CN1C(=O)N(c2cccc(C(F)(F)F)c2)C2=C(C(=O)N(C)CC2)C1c1ccc(C#N)cc1 (stereo not drawn)", "IC50 (nM)": 2.6}
{"compound": "CN1CCC2=C(C1=O)[C@@H](c1ccc(C#N)cc1)NC(=O)N2c1cccc(C(F)(F)F)c1", "IC50 (nM)": 2.7}
{"compound": "CC1(C)CC2=C(C(=O)N1)C(c1ccc(C#N)cc1)NC(=O)N2c1cccc(C(F)(F)F)c1 (stereo not drawn)", "IC50 (nM)": 13}
{"compound": "CN1CCC2=C(C1=O)C(c1ccc(C#N)cc1-c1cncnc1)N(C)C(=O)N2c1cccc(C(F)(F)F)c1 (stereo not drawn)", "IC50 (nM)": 1.4}

P. CN1CCC2=C(C1=O)C(c1ccc(C#N)cc1-c1cnco1)N(C)C(=O)N2c1cccc(C(F)(F)F)c1 (stereo not drawn)
Q. CNC(=O)CN1C(=O)N(c2cccc(C(F)(F)F)c2)C2=C(C(=O)N(C)CC2)C1c1ccc(C#N)cc1 (stereo not drawn)
Q) Lowest IC50? choose P or Q Please indicate the selected item by its label.
A) P

----------
# tgt: neutrophil elastase in human plasma (Homo sapiens (Human))
# test.description: Neutrophil elastase inhibitory activity in human plasma
# test.conditions: human plasma assay (zymosan-stimulated blood plasma), substrate 250 μM, pH 7.5
result.type: IC50 (nM)

Example molecules with recorded IC50:
{"molecule": "CN1CCC2=C(C1=O)C(c1ccc(C#N)cc1)NC(=O)N2c1cccc(C(F)(F)F)c1 (racemic)", "unit.of.measure": "nM", "readout.number": 2.9}
{"molecule": "CC1(C)CC2=C(C(=O)N1)C(c1ccc(C#N)cc1)N(CC(=O)O)C(=O)N2c1cccc(C(F)(F)F)c1 (centres unmarked)", "unit.of.measure": "nM", "readout.number": 2.2}
{"molecule": "CN1CCC2=C(C1=O)C(c1ccc(C#N)cc1-c1ccncc1)N(C)C(=O)N2c1cccc(C(F)(F)F)c1 (centres unmarked)", "unit.of.measure": "nM", "readout.number": 1.8}

I. CN1C(=O)N(c2cccc(C(F)(F)F)c2)C2=C(C(=O)NCC2)C1c1ccc(C#N)cc1 (centres unmarked)
II. CN1CCC2=C(C1=O)C(c1ccc(C#N)cc1)N(CC(N)=O)C(=O)N2c1cccc(C(F)(F)F)c1 (centres unmarked)
Q) From the items above, decide which of I and II has the lower IC50 reading. Response format: the label of the selected entry.
A) I
(I: 1.1 nM, II: 14 nM)
